Source: ChEMBL document CHEMBL4052618

- Tgt: Voltage-gated inwardly rectifying potassium channel KCNH2 (Homo sapiens, UniProt Q12809)
- Sequence (Q12809 whole entry): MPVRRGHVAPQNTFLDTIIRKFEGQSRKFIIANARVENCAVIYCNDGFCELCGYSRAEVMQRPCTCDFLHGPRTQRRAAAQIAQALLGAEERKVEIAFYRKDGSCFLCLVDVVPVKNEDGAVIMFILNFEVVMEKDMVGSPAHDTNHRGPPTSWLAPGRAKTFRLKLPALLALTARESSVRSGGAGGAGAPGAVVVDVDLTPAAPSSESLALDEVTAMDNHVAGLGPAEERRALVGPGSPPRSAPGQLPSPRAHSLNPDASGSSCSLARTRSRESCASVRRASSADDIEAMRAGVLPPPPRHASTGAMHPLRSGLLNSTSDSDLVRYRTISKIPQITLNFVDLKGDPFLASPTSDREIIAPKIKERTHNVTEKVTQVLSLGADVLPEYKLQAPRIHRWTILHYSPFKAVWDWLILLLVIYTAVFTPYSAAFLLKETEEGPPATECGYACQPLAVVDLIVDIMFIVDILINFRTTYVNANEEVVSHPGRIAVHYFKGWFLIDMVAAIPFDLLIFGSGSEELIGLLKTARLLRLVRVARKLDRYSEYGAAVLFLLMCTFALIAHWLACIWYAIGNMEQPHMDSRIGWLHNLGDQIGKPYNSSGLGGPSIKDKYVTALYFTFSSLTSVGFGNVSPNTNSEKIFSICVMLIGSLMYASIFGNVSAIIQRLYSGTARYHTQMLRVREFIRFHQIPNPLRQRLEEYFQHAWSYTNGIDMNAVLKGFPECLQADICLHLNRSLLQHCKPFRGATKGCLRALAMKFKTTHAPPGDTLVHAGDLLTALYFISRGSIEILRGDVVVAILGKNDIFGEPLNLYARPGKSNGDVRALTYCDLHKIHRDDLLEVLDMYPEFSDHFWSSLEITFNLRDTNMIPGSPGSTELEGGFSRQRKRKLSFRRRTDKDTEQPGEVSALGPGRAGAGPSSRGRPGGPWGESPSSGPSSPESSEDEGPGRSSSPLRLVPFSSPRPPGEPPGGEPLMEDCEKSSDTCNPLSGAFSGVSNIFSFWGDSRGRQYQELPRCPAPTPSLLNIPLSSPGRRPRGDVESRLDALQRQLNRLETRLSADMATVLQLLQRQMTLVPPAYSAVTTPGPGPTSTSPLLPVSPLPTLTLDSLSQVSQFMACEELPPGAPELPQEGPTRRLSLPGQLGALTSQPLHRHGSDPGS
- Assay explanation: Inhibition of human ERG expressed in HEK293 cells by lonWorks Quattro analysis
- Assay type: cell-based
Endpoint label: IC50 (µM)
Report the figure in µM without appending any unit label.

(Q) Tell me the measured IC50 of "C=CC(=O)Nc1cc(Nc2nccc(-c3cn4c5c(cccc35)CCC4)n2)c(OC)cc1N(C)CCN(C)C" , please.
(A) 8.46

====

- Assay explanation: Intrinsic clearance in mouse liver microsomes
- Format: ADME, microsome
- Measurement conditions: read-out: CLH
Below, each entry is listed alongside its reported CLint scaled.
# output: number + unit

| Smiles record | Measurement |
| --- | --- |
| C=CC(=O)Nc1cc(Nc2nccc(-c3cn(C)c4ccccc34)n2)c(OC)cc1N(C)CCN(C)C | 228 mL/min/kg |

Lab note: next molecule to report on.
(Q) Any idea what CLint scaled was measured for "C=CC(=O)Nc1cc(Nc2nccc(-c3cn4c5c(cccc35)CCC4)n2)c(OC)cc1N(C)CCN(C)C" ?
(A) 457 mL/min/kg

====

- Tgt: Epidermal growth factor receptor (Homo sapiens, UniProt P00533, L858R)
- Sequence (P00533 25-1210 L858R limits assumed): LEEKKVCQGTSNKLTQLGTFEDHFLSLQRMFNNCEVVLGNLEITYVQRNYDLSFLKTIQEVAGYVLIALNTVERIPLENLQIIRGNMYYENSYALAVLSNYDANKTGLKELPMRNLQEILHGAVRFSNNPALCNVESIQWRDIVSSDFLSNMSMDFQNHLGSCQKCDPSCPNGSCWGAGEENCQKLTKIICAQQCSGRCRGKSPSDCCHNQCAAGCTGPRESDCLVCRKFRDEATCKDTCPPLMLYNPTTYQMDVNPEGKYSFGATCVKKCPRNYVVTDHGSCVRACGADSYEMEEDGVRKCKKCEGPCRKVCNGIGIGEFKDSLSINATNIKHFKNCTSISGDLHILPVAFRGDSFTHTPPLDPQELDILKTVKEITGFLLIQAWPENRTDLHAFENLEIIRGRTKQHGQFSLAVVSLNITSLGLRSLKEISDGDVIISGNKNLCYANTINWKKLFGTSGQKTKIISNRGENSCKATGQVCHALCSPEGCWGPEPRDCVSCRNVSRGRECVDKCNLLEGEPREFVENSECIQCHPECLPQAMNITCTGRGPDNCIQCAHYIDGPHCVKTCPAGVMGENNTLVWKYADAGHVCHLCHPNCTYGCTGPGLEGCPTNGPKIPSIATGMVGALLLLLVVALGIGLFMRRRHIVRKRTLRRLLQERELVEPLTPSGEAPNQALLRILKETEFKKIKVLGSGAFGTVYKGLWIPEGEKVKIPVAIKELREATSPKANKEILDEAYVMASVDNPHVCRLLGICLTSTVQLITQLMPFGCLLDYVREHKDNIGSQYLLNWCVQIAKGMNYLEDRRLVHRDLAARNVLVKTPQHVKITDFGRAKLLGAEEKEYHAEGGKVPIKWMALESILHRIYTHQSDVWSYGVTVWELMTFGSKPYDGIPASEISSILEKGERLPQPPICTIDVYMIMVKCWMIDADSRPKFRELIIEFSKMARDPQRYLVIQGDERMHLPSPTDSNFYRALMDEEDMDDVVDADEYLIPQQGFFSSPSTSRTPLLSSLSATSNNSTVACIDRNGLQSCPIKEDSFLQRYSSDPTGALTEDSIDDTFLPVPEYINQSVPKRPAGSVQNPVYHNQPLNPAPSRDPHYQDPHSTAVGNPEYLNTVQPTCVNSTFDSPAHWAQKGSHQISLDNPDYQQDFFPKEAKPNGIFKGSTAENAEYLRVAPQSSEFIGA
- Assay explanation: Inhibition of human recombinant cytoplasmic GST-tagged EGFR L858R mutant expressed in baculovirus using TK-substrate-biotin preincubated for 15 mins followed by substrate addition measured after 60 mins by FRET-based Z'-Lyte assay
Listing: pIC50 of selected compounds
Scale explanation: pIC50 corresponds to minus log10 of a concentration expressed in moles per litre.

| Compound | pIC50 |
| --- | --- |
| C=CC(=O)Nc1cc(Nc2cc(-c3cn(C)c4ccccc34)nc(C)n2)c(OC)cc1N(C)CCN(C)C | 7.33 |

(Q) # input compound: "C=CC(=O)Nc1cc(Nc2nccc(-c3cn4c5c(cccc35)CCC4)n2)c(OC)cc1N(C)CC(=O)N(C)C" ; wanted: its pIC50
(A) 6.30

(Q) Record: "C=CC(=O)Nc1cc(Nc2nccc(-c3cn4c5c(cccc35)CCC4)n2)c(OC)cc1N(C)CCN(C)C(C)=O"
(A) 6.41

(Q) And then "C=CC(=O)Nc1cc(Nc2cc(-c3cn(C)c4ccccc34)nc(OC)n2)c(OC)cc1N(C)CCN(C)C" , what is it?
(A) 6.91

(Q) // same read-out, input: "C=CC(=O)Nc1cc(Nc2nccc(-c3cn4c5c(cccc35)CCC4)n2)c(OC)cc1N1CC(N(C)C)C1"
(A) 7.87

(Q) Note, next up: C=CC(=O)Nc1cc(Nc2nccc(-c3cn4c5c(cccc35)CCC4)n2)c(OC)cc1N1CCC(CN(C)C)C1 (configuration not stated)
(A) 8.40

(Q) Entry to check: "C=CC(=O)Nc1cc(Nc2ncnc(-c3cn(C)c4ccccc34)c2OC)c(OC)cc1N(C)CCN(C)C"
(A) 7.26

(Q) Please do the same for "C=CC(=O)Nc1cc(Nc2nccc(-c3cn4c5c(cccc35)CCC4)n2)c(OC)cc1N1CCNC(=O)C1" as well.
(A) 6.37

====

- Tgt: Epidermal growth factor receptor (Homo sapiens)
- Assay explanation: Inhibition of human recombinant cytoplasmic GST-tagged EGFR (668 to 1210 residues) expressed in baculovirus using TK-substrate-biotin preincubated for 15 mins followed by substrate addition measured after 60 mins by FRET-based Z'-Lyte assay
- Measurement conditions: read-out: IC50
Endpoint label: pIC50
Note on pIC50: it is the negative log10 of concentration, concentration in mol/L.

| Compound | pIC50 |
| --- | --- |
| C=CC(=O)Nc1cc(Nc2cc(-c3cn(C)c4ccccc34)ncn2)c(OC)cc1N(C)CCN(C)C | 8.64 |
| C=CC(=O)Nc1cc(Nc2nccc(-c3cn4c5c(cccc35)CCC4)n2)c(OC)cc1N(C)CCO | 6.08 |
| C=CC(=O)Nc1cc(Nc2cc(-c3cn4c5c(cccc35)CCC4)nc(OC)n2)c(OC)cc1N(C)CCN(C)C | 6.27 |
| C=CC(=O)Nc1cc(Nc2cc(-c3cn(C)c4ccccc34)nc(OC)n2)c(OC)cc1N(C)CCN(C)C | 6.20 |
| C=CC(=O)Nc1cc(Nc2nccc(-c3cn4c5c(cccc35)CCC4)n2)c(OC)cc1N1CC(N(C)C)C1 | 7.19 |

(Q) Form field - read-out: pIC50; system: Epidermal growth factor receptor (Homo sapiens); submitted item: C=CC(=O)Nc1cc(Nc2nccc(-c3cn4c5c(cccc35)CCC4)n2)c(OC)cc1N1CCC(CN(C)C)C1 (stereo not given)
(A) 8.06

(Q) What about "C=CC(=O)Nc1cc(Nc2ncnc(-c3cn(C)c4ccccc34)c2OC)c(OC)cc1N(C)CCN(C)C" ?
(A) 6.65

(Q) And "C=CC(=O)Nc1cc(Nc2cc(-c3cn4c5c(cccc35)CCC4)ncn2)c(OC)cc1N(C)CCN(C)C" ?
(A) 8.51

(Q) What would you report for "C=CC(=O)Nc1cc(Nc2nccc(-c3cn4c5c(cccc35)CCC4)n2)c(OC)cc1N1CC(CN(C)C)C1" ?
(A) 6.69

(Q) Same question for "C=CC(=O)Nc1cc(Nc2nccc(-n3cc(C)c4ccccc43)n2)c(OC)cc1N(C)CCN(C)C" please.
(A) 6.15

====

- Assay explanation: Intrinsic clearance in human hepatocytes assessed per million cells
- Assay type: ADME, cell-based, Hepatocyte
Endpoint label: CLH

(Q) GET /values?readout=CLH&item= "C=CC(=O)Nc1cc(Nc2nccc(-c3cn4c5c(cccc35)CCC4)n2)c(OC)cc1N(C)CCN(C)C"
(A) 5 µL/min/10^6 cells

====

- Assay explanation: Half life in rat hepatocytes
- Type: ADME, cell-based, Hepatocyte
Entries and their half-life
Your answer is read as min, so omit the unit and give the number.

| Molecule | Endpoint label | Units | Measurement |
| --- | --- | --- | --- |
| C=CC(=O)Nc1cc(Nc2nccc(-c3cn4c5c(cccc35)CCC4)n2)c(OC)cc1N(C)CCN(C)C | half-life | min | 33 |

Kindly review the next molecule as well.
(Q) # input molecule: C=CC(=O)Nc1cc(Nc2nccc(-c3cn(C)c4ccccc34)n2)c(OC)cc1N(C)CCN(C)C [OSIMERTINIB] ; wanted: its half-life
(A) 57.8

====

- Assay explanation: Oral bioavailability in Sprague-Dawley rat at 10 mg/kg administered via gavage after 24 hrs by LC-MS/MS analysis
- Format: ADME, organism-based
- Measurement conditions: in vivo
Endpoint label: bioavailability (%)
Supply the numeric figure in %, leaving out any unit text.

| Smiles record | bioavailability, % |
| --- | --- |
| C=CC(=O)Nc1cc(Nc2nccc(-c3cn4c5c(cccc35)CCC4)n2)c(OC)cc1N(C)CCN(C)C | 52.4 |

(Q) Param item = "C=CC(=O)Nc1cc(Nc2nccc(-c3cn(C)c4ccccc34)n2)c(OC)cc1N(C)CCN(C)C" ; retrieve measured bioavailability.
(A) 66.5

====

- Tgt: Epidermal growth factor receptor (Homo sapiens, UniProt P00533, L858R)
- Assay explanation: Inhibition of human recombinant cytoplasmic GST-tagged EGFR L858R mutant expressed in baculovirus using TK-substrate-biotin preincubated for 15 mins followed by substrate addition measured after 60 mins by FRET-based Z'-Lyte assay
Endpoint label: IC50 (nM)
Report the value in nM with no unit label.

Some entries whose results are on file:
| Smiles record | Tgt | Units | IC50 |
| --- | --- | --- | --- |
| C=CC(=O)Nc1cc(Nc2cc(-c3cn4c5c(cccc35)CCC4)nc(OC)n2)c(OC)cc1N(C)CCN(C)C | Epidermal growth factor receptor (Homo sapiens, UniProt P00533, L858R) | nM | 181 |
| C=CC(=O)Nc1cc(Nc2nccc(-c3cn4c5c(cccc35)CCC4)n2)c(OC)cc1N(C)CCO | Epidermal growth factor receptor (Homo sapiens, UniProt P00533, L858R) | nM | 192 |

Now let's try a different one.
(Q) Which IC50 value is on record for "C=CC(=O)Nc1cc(Nc2nc(OC)cc(-c3cn(C)c4ccccc34)n2)c(OC)cc1N(C)CCN(C)C" ?
(A) 155

====

- Test system: A-431
- Assay explanation: Antiproliferative activity against human A431 cells harboring wild-type EGFR
- Format: functional, cell-based
Reported values of IC50 for individual entries
Give just the numeric value; nM need not be written.

Examples with their reported IC50 follow.
| Compound | Units | Measurement |
| --- | --- | --- |
| C=CC(=O)Nc1cc(Nc2cc(-c3cn4c5c(cccc35)CCC4)ncn2)c(OC)cc1N(C)CCN(C)C | nM | 122 |
| C=CC(=O)Nc1cc(Nc2cc(-c3cn(C)c4ccccc34)ncn2)c(OC)cc1N(C)CCN(C)C | nM | 128 |

Next item in the queue.
(Q) Lab note: need IC50 for C=CC(=O)Nc1cc(Nc2nccc(-c3cn4c5c(cccc35)CCC4)n2)c(OC)cc1N1CCC(CN(C)C)C1 (centres undefined) on A-431, anyone have it?
(A) 514
